Form field: apparent KD of MS2 coat protein (one value per entry).
system: MS2 coat protein; experiment: apparent KD of MS2 coat protein; designed switch direction (-1 OFF switch, 1 ON switch): -1; higher = weaker reporter binding; conditions: input ligand: FMN 200 uM
readoutKind: apparent KD of MS2 coat protein (nM)

>  <primarySequence>
AUUGUUUAUGUAGGAUAUGCCUGGCGUGCCUUUGCAGAAGGACAUGAGGAUCACCCAUGUAACAUGAGGCUCACCCAUGUCGCC [salish99_ExNG1_r04_114] (Eterna round: R96, puzzle: Exclusion NG 1)

>  <value>
162

$$$$
>  <primarySequence>
CUCGUGUGAGGAUAUCGAUUAUGGAAGUCUAGAUCCAUACGCGAGAAGGCACAUGAGGAUCACCCAUGUAAUGG [jl-ex4-4.35 ViennaUCT mod] (Eterna round: R97, puzzle: Exclusion 4)

>  <value>
68.3

$$$$
>  <primarySequence>
UUUUUCUCAGGAUAUACAUGAGGAUCACCCAUGUAUAUUAAGGAUAAUACAUGGGAAUGUAGAAGGGAGCUCAU [Omei Ex3 Pseudoloop 12] (Eterna round: R97, puzzle: Exclusion 3)

>  <value>
106

$$$$
>  <primarySequence>
UUGGAGAUAGGAUAUACGAGGAGAGUUGAGGGAAGGUGAUGACAUGAGGAUCACCCAUGUAGAAGGAUCAGGAG [JR_Exclu2_Sub069] (Eterna round: R96, puzzle: Exclusion 2)

>  <value>
169

$$$$
>  <primarySequence>
AGAUCACAUGAGGAUCACCCAUGUCAGGAUAUCAUCAUUGAAGCCUCGGCUUCAAUGAUGAGAAGGGACAUAAU [E1/2-B2] (Eterna round: R97, puzzle: Exclusion 1)

>  <value>
546

$$$$
>  <primarySequence>
GGUUUGCAGCAGGAUAUCCAUCCGCGGUAUGGUGGAGAAGGGCUGACAUGAGGAUCACCCAUGUGCGUCCUAGG [salish99_ex6_r4_017] (Eterna round: R97, puzzle: Exclusion 6)

>  <value>
58.6

$$$$
>  <primarySequence>
UUAUGAGAGCAGGAUAUCUUAUAAGUGUAUUAAAGAGAAGGGCUCACAUGAGGAUCACCCAUGUGGUCCUAGAU [LRO-Excl6-17-mod of 4.86 by jal] (Eterna round: R97, puzzle: Exclusion 6)

>  <value>
106

$$$$
>  <primarySequence>
CUAGCGAUUGUAGGAUAUCGAUGUGUUUCACAUCGAGAAGGACAUGAGGAUCACCCAUGUGAAGGAUCGUGAGAUCCACGCUAG [JL ENG1 3.78] (Eterna round: R96, puzzle: Exclusion NG 1)

>  <value>
76.6

$$$$
>  <primarySequence>
CCAGUACGAGGAUAUACAUGAGGAUCACCCAUGUAAAUUGCCACGUCUUGGACGUCAUGUAGAAGGCGUUGGAA [EX3 C.1] (Eterna round: R97, puzzle: Exclusion 3)

>  <value>
15.2

$$$$
>  <primarySequence>
UGAGUGCUGCGAGGAUAUACAUGAGGAUCACCCAUGUGGAUCUGUGAGGCUUUGCCUCACAGGAUGUAGAAGGCGCAGUACUCU [JL ENG2 1.19] (Eterna round: R96, puzzle: Exclusion NG 2)

>  <value>
156

$$$$
>  <primarySequence>
GUUAUACAUGAGGAUCACCCAUGUCAGGAUAUUAUCUAUCUUUGGAAGCAUUGAUCGCUAAGAAGGGACUAGUA [Bubbles2] (Eterna round: R97, puzzle: Exclusion 1)

>  <value>
28

$$$$
>  <primarySequence>
CAAACAAGCGAAAGAUCCCACAUGAGGAUCACCCAUGUGCUCGUCUUAUAAGGUACUGUGACGAUAGUCACGGUACC [Mat - Sensor, turn-off var - Eli Mod - D79] (Eterna round: R97, puzzle: Sensor, turn-off variant 1)

>  <value>
36.8

$$$$
>  <primarySequence>
AUGUGCACGCUGCGAUCCUACAUGAGGAUCACCCAUGUGGUCUGGUGGCGUGGGUCACCGGACUUGGCUCGUCUUGA [salish99_S_TOV1_R5_067] (Eterna round: R97, puzzle: Sensor, turn-off variant 1)

>  <value>
117

$$$$
>  <primarySequence>
AUGCUCCGUGUAGGAUAUCGCCGCACCACCCGGCGAGAAGGACAUGAGGAUCACCCAUGUAUGUUAUUAUCACGUGUGGCGCGC [Design 42] (Eterna round: R96, puzzle: Exclusion NG 1)

>  <value>
17.2

$$$$
>  <primarySequence>
UCUUGUUGUCCGUGAGAAUACAUGAGGAUCACCCAUGUUAGUUUGAUUAUGAUGUGUAAGUUUGUUGCUCGUUUUAU [JR_STOV1_Sub070] (Eterna round: R97, puzzle: Sensor, turn-off variant 1)

>  <value>
36.4

$$$$
>  <primarySequence>
GUUGUUUAUGUAGGAUAUGCCUGGCGUGCCUUUGCAGAAGGACAUGAGGAUCACCCAUGUAUUGCGGUCUGCGUUCAGAUCGCA [salish99_ExNG1_r4_039] (Eterna round: R96, puzzle: Exclusion NG 1)

>  <value>
59.5

$$$$
>  <primarySequence>
UAAUAGUAUGUUAGGAUAUGCUGGUCGAAAGAUCAGCAGAAGGAACAUGAGGAUCACCCAUGUAGACUAUUUUA [Mod of JL 20 - Jieux - Brourd's mod of Exclusion 4] (Eterna round: R97, puzzle: Brourd's mod of Exclusion 4)

>  <value>
31.6

$$$$
>  <primarySequence>
UUACAGCAAGGAUAUACAUGAGGAUCACCCAUGUAUGCAUGUUCGAGAGAGGCCUACGGUAGAAGGUGCAUGUU [EX3 C.11] (Eterna round: R97, puzzle: Exclusion 3)

>  <value>
25.2

$$$$

Recorded values, source the supplement of paper PMC9170038.
